All values here come from paper PMC12655637.

Test system: SK-MEL-28
assaySummary: NCI-60 screening, one-dose (10 µM) and five-dose, SRB
Assay type: cell-based, human
experimentalSetup: Homo sapiens; 10 μM; SK-MEL-28, Melanoma; read-out: Growth percentage
quantityMeasured: activity at 10 µM (%)
Please give a number only; it is taken to be in %.

Solved cases (5 shown):
• Cc1nc(SCC(=O)N2CCN(c3cc4c(cc3F)c(=O)c(C(=O)O)cn4C3CC3)CC2)sc1C(=O)/C=C/c1cccc(Cl)c1 [Compound 4b] = 84.1
• Cc1nc(SCC(=O)N2CCN(c3cc4c(cc3F)c(=O)c(C(=O)O)cn4C3CC3)CC2)sc1C(=O)/C=C/c1ccc([N+](=O)[O-])cc1 [Compound 4h] = 60
• Cc1nc(SCC(=O)N2CCN(c3cc4c(cc3F)c(=O)c(C(=O)O)cn4C3CC3)CC2)sc1C(=O)/C=C/c1cccc(F)c1 [Compound 4d] = 77.5
• COc1cccc(/C=C/C(=O)c2sc(SCC(=O)N3CCN(c4cc5c(cc4F)c(=O)c(C(=O)O)cn5C4CC4)CC3)nc2C)c1OC [Compound 4k] = 100
• Cc1nc(SCC(=O)N2CCN(c3cc4c(cc3F)c(=O)c(C(=O)O)cn4C3CC3)CC2)sc1C(=O)/C=C/c1ccc(Br)cc1 [Compound 4f] = 114

Now for a further compound.
SK-MEL-28 data for Cc1nc(SCC(=O)N2CCN(c3cc4c(cc3F)c(=O)c(C(=O)O)cn4C3CC3)CC2)sc1C(=O)/C=C/c1ccc(F)cc1 [Compound 4e] ; its activity at 10 µM: 116

====

# activity at 10 µM per entry
System: COLO 205
assaySummary: NCI-60 screening, one-dose (10 µM) and five-dose, SRB
Assay type: cell-based, human
experimentalSetup: Homo sapiens; 10 μM; COLO 205, Colon Cancer; read-out: Growth percentage
Please give a number only; it is taken to be in %.

Solved cases (2 shown):
* Cc1nc(SCC(=O)N2CCN(c3cc4c(cc3F)c(=O)c(C(=O)O)cn4C3CC3)CC2)sc1C(=O)/C=C/c1cccc([N+](=O)[O-])c1 | 90.5
* Cc1nc(SCC(=O)N2CCN(c3cc4c(cc3F)c(=O)c(C(=O)O)cn4C3CC3)CC2)sc1C(=O)/C=C/c1ccc(Br)cc1 | 112

Per the records, this molecule ( CC(=O)c1sc(SCC(=O)N2CCN(c3cc4c(cc3F)c(=O)c(C(=O)O)cn4C3CC3)CC2)nc1C ) has activity at 10 µM equal to 118

====

Tested on: SNB-75
assaySummary: NCI-60 screening, one-dose (10 µM) and five-dose, SRB
Assay type: cell-based, human
experimentalSetup: Homo sapiens; 10 μM; SNB-75, CNS Cancer; read-out: Growth percentage
quantityMeasured: activity at 10 µM (%)
Please give a number only; it is taken to be in %.

Solved cases (6 shown):
• COc1ccc(/C=C/C(=O)c2sc(SCC(=O)N3CCN(c4cc5c(cc4F)c(=O)c(C(=O)O)cn5C4CC4)CC3)nc2C)cc1 = 86.2
• Cc1nc(SCC(=O)N2CCN(c3cc4c(cc3F)c(=O)c(C(=O)O)cn4C3CC3)CC2)sc1C(=O)/C=C/c1cccc([N+](=O)[O-])c1 = 95.7
• Cc1nc(SCC(=O)N2CCN(c3cc4c(cc3F)c(=O)c(C(=O)O)cn4C3CC3)CC2)sc1C(=O)/C=C/c1cccc(Cl)c1 = 102
• Cc1nc(SCC(=O)N2CCN(c3cc4c(cc3F)c(=O)c(C(=O)O)cn4C3CC3)CC2)sc1C(=O)/C=C/c1ccc(N(C)C)cc1 = 104
• Cc1nc(SCC(=O)N2CCN(c3cc4c(cc3F)c(=O)c(C(=O)O)cn4C3CC3)CC2)sc1C(=O)/C=C/c1ccc(Br)cc1 = 65.7
• Cc1nc(SCC(=O)N2CCN(c3cc4c(cc3F)c(=O)c(C(=O)O)cn4C3CC3)CC2)sc1C(=O)/C=C/c1ccc(F)cc1 = 103

Per the records, this compound ( COc1cccc(/C=C/C(=O)c2sc(SCC(=O)N3CCN(c4cc5c(cc4F)c(=O)c(C(=O)O)cn5C4CC4)CC3)nc2C)c1OC ) has activity at 10 µM equal to 100

Per the records, this compound ( Cc1nc(SCC(=O)N2CCN(c3cc4c(cc3F)c(=O)c(C(=O)O)cn4C3CC3)CC2)sc1C(=O)/C=C/c1ccc(Cl)cc1 ) has activity at 10 µM equal to 95.6

Per the records, this compound ( Cc1nc(SCC(=O)N2CCN(c3cc4c(cc3F)c(=O)c(C(=O)O)cn4C3CC3)CC2)sc1C(=O)/C=C/c1cccc(F)c1 ) has activity at 10 µM equal to 49.1

Per the records, this compound ( CC(=O)c1sc(SCC(=O)N2CCN(c3cc4c(cc3F)c(=O)c(C(=O)O)cn4C3CC3)CC2)nc1C ) has activity at 10 µM equal to 79.2

Per the records, this compound ( Cc1nc(SCC(=O)N2CCN(c3cc4c(cc3F)c(=O)c(C(=O)O)cn4C3CC3)CC2)sc1C(=O)/C=C/c1ccc([N+](=O)[O-])cc1 ) has activity at 10 µM equal to 91.2
